# Organism: Rattus norvegicus
# protocol.details: Open TG-GATES - Regimen: Single
# Type: toxicity, organism-based, Sprague-Dawley
# Design: regimen Single, gender Male, age 6 weeks
# condition.context: in vivo, po, 1000 mg/kg, 9 h, tissue Plasma, route gavage, dose level High
Overview of recorded DBIL for various compounds

{"chemical.string": "O=C(OC[C@H]1O[C@@H](OC(=O)c2cc(O)c(O)c(OC(=O)c3cc(O)c(O)c(O)c3)c2)[C@H](OC(=O)c2cc(O)c(O)c(OC(=O)c3cc(O)c(O)c(O)c3)c2)[C@@H](OC(=O)c2cc(O)c(O)c(OC(=O)c3cc(O)c(O)c(O)c3)c2)[C@@H]1OC(=O)c1cc(O)c(O)c(OC(=O)c2cc(O)c(O)c(O)c2)c1)c1cc(O)c(O)c(OC(=O)c2cc(O)c(O)c(O)c2)c1", "DBIL": "0.08 mg/dL"}
{"chemical.string": "COC(=O)C1=C(C)NC(C)=C(C(=O)OC)C1c1ccccc1[N+](=O)[O-]", "DBIL": "0.008 mg/dL"}
{"chemical.string": "CN/C(=N/CCSCc1nc[nH]c1C)NC#N", "DBIL": "0.068 mg/dL"}
{"chemical.string": "Cc1nnc2n1-c1ccc(Cl)cc1C(c1ccccc1Cl)=NC2", "DBIL": "0.014 mg/dL"}

Entry CNC(=C[N+](=O)[O-])NCCSCc1ccc(CN(C)C)o1 has what DBIL?
0.066 mg/dL

----------
# Species: Rattus norvegicus
# protocol.details: Open TG-GATES - Regimen: Daily Repeat
# Format: toxicity, organism-based, Sprague-Dawley
# Design: regimen Daily Repeat, gender Male, age 6 weeks
# condition.context: in vivo, po, 100 mg/kg, […], tissue Plasma, route gavage, dose level Low, time 7 day
measurement.type: Cl (meq/L)
The answer is to be given in meq/L; state only the numeric part.

{"chemical.string": "O=C(OC[C@H]1O[C@@H](OC(=O)c2cc(O)c(O)c(OC(=O)c3cc(O)c(O)c(O)c3)c2)[C@H](OC(=O)c2cc(O)c(O)c(OC(=O)c3cc(O)c(O)c(O)c3)c2)[C@@H](OC(=O)c2cc(O)c(O)c(OC(=O)c3cc(O)c(O)c(O)c3)c2)[C@@H]1OC(=O)c1cc(O)c(O)c(OC(=O)c2cc(O)c(O)c(O)c2)c1)c1cc(O)c(O)c(OC(=O)c2cc(O)c(O)c(O)c2)c1", "measurement.type": "Cl", "readout.value": 103.2}
{"chemical.string": "CNC(=C[N+](=O)[O-])NCCSCc1ccc(CN(C)C)o1", "measurement.type": "Cl", "readout.value": 103}
{"chemical.string": "COC(=O)C1=C(C)NC(C)=C(C(=O)OC)C1c1ccccc1[N+](=O)[O-]", "measurement.type": "Cl", "readout.value": 106.2}
{"chemical.string": "Cc1nnc2n1-c1ccc(Cl)cc1C(c1ccccc1Cl)=NC2", "measurement.type": "Cl", "readout.value": 105.2}
{"chemical.string": "CN/C(=N/CCSCc1nc[nH]c1C)NC#N", "measurement.type": "Cl", "readout.value": 102}

Field: next molecule
Dear colleague, I am looking for the recorded Cl of the following molecule: CCOc1ccc(NC(C)=O)cc1
104.8

----------
KIDNEY_TOTAL values by entry
# Species on record: Rattus norvegicus
# protocol.details: Open TG-GATES - Regimen: Single
# Assay type: toxicity, organism-based, Sprague-Dawley
# Parameters: regimen Single, gender Male, age 6 weeks
# condition.context: in vivo, po, 300 mg/kg, 3 h, tissue Kidney, route gavage, dose level Middle
Return type: number; implicit unit g.

{"chemical.string": "COC(=O)C1=C(C)NC(C)=C(C(=O)OC)C1c1ccccc1[N+](=O)[O-]", "measurement.type": "KIDNEY_TOTAL", "readout.value": 1.8}
{"chemical.string": "O=C(OC[C@H]1O[C@@H](OC(=O)c2cc(O)c(O)c(OC(=O)c3cc(O)c(O)c(O)c3)c2)[C@H](OC(=O)c2cc(O)c(O)c(OC(=O)c3cc(O)c(O)c(O)c3)c2)[C@@H](OC(=O)c2cc(O)c(O)c(OC(=O)c3cc(O)c(O)c(O)c3)c2)[C@@H]1OC(=O)c1cc(O)c(O)c(OC(=O)c2cc(O)c(O)c(O)c2)c1)c1cc(O)c(O)c(OC(=O)c2cc(O)c(O)c(O)c2)c1", "measurement.type": "KIDNEY_TOTAL", "readout.value": 1.8}

Fill in the blank: the reported KIDNEY_TOTAL of Cc1nnc2n1-c1ccc(Cl)cc1C(c1ccccc1Cl)=NC2 is ____.
1.7

Subsequent entry: CN/C(=N/CCSCc1nc[nH]c1C)NC#N
1.9

Repeat with CNC(=C[N+](=O)[O-])NCCSCc1ccc(CN(C)C)o1
2

meta.source: ChEMBL document CHEMBL3885861
